The values you see were collected from patent US10508118B2.

- STUDY SYSTEM: EML4-ALK-BaF3 (Homo sapiens)
- Construct: expressed in transfected cells; host or cells: Ba/F3 cells; the other entry of the earlier key: EML4 (Q9HC35, Echinoderm microtubule-associated protein-like 4)
- Sequence (Q9UM73 1058-1620 limits assumed): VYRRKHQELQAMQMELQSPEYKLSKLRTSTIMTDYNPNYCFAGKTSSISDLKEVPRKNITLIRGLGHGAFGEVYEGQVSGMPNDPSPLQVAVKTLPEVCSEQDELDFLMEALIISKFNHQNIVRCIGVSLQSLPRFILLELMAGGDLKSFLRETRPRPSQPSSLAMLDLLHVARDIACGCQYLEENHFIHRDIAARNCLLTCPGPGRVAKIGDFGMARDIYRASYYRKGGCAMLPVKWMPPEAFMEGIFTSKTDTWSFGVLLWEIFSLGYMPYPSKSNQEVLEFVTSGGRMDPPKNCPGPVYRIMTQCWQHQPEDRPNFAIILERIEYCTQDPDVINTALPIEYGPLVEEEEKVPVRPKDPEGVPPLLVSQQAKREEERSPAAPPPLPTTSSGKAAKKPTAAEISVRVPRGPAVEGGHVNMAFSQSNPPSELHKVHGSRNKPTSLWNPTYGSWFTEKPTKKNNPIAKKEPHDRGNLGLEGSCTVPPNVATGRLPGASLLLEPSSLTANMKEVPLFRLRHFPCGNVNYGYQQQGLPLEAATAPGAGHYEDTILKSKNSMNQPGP
- MEASUREMENT NOTES: Growth inhibition of EML4-ALK transformed BaF3 cells (MTS)
- Assay type: cell-based
- EXPERIMENTAL PARAMETERS: EML4-ALK-BaF3 cells, 48 hours, MTS; Table 12
MEASUREMENT TYPE: IC50

// solved cases for IC50 follow
CC(C)S(=O)(=O)c1ccccc1CNc1nc(Nc2ccc(N3CCC(O)CC3)cc2)nc2ccn(C)c12 = > 10000 nM
COc1cc(N2CCC(N3CCN(C)CC3)CC2)ccc1Nc1nc(Nc2ccccc2SC(C)C)c2c(ccn2C)n1 = ~949 nM
CC(C)S(=O)(=O)c1ccccc1Nc1nc(Nc2ccc(S(N)(=O)=O)cc2)nc2ccn(C)c12 = ~3290 nM

Could you now consider this next molecule?
Ask: Find the recorded IC50 belonging to Cn1ccc2nc(Nc3ccc(N4CCC(O)CC4)cc3)nc(NCc3ccccc3S(C)(=O)=O)c21 and report it.
Reply: > 10000 nM
